biological target: UniProt:Q00987; test: Binding affinity to recombinant human MDM2 (1 to 118 residues) assessed as inhibition constant using FAM-tagged p-53 based peptide as substrate by fluorescence polarization based assay
Sequence (Q00987 whole entry, the tested form may be a part): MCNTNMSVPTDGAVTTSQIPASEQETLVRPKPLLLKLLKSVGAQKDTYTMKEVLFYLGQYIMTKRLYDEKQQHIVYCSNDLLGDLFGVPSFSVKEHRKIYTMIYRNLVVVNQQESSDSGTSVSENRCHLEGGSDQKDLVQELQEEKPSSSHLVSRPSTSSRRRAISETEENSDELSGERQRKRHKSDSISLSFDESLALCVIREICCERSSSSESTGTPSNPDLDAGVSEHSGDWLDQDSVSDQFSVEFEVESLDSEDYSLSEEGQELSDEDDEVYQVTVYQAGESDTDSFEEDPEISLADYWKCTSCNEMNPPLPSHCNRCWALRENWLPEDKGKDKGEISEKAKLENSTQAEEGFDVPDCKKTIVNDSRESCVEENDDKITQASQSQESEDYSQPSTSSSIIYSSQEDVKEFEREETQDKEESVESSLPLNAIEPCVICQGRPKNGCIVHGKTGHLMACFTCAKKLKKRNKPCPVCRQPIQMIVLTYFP
observation type: Ki (nM)
// return numeric value only (unit: nM, not printed)

// Ki (UniProt:Q00987) for `CNC(=O)c1ccc(NC(=O)[C@@H]2NC3(CCCCC3)[C@@]3(C(=O)Nc4cc(Cl)ccc43)[C@H]2c2cccc(Cl)c2F)cc1` = 2.7

Reference source: ChEMBL document CHEMBL5260839
